Sourced from patent US11186564B2

- testedTarget: recombinant human serotonin receptor 5-HT2A (Homo sapiens, UniProt P28223)
- Construct: expressed in transfected cells; method B: loaded with Ca2+ dye
- Sequence (P28223 whole entry): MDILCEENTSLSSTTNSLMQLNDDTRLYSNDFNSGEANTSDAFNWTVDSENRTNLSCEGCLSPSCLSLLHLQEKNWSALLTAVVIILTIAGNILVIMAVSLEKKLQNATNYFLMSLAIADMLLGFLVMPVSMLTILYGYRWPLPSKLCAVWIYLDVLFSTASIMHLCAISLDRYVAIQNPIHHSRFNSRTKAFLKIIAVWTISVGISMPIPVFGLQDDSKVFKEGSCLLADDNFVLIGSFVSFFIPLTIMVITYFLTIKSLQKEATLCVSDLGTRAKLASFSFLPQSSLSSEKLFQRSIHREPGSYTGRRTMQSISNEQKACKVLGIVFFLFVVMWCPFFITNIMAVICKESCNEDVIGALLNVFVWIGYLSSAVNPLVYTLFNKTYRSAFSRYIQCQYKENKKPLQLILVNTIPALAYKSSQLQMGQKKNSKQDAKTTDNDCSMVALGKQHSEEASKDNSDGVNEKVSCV
- methodNotes: 5-HT2A antagonist Ca2+ assay in CHO-K1 cells (method A aequorin luminescence / method B FLIPR fluorescence)
- Assay type: cell-based
- measurementSetup: antagonist mode vs EC80 of reference agonist, method A or B, read-out: 5HT2A IC50
Catalogue of log10 of IC50 values
measuredMetric: log10 of IC50 (log10 of the value in nM)

compound | log10 of IC50
Fc1ccc(OC2CCCN(CC3COc4ccccc43)CC2)cc1 (centres unmarked) | 1.00
COc1ccccc1OC1CCN(CC2Cc3ccccc3C2)[C@@H](C)C1 (single isomer, unassigned) [Example 148] | 3.16
COc1ccccc1N1CCC2(CCN(CC3CCc4cccnc43)C2)C1 (centres unmarked) | 3.52
c1ccc(O[C@H]2COC3(C2)CN(C[C@H]2CCc4ccccc42)C3)cc1 (single isomer, unassigned) | 2.34
C[C@@H]1C[C@]2(CCc3ccccc3O2)CCN1CCO[C@H]1CCc2ccccc21 | 2.57
COc1ccccc1OC1CCN(CC2c3ccccc3CC2C)CC1 (centres unmarked) | 1.90

====

- testedTarget: human sodium channel NaV1.2 (Homo sapiens)
- methodNotes: NaV1.2 inhibition, automated patch-clamp (Q-Patch HTX), slow inactivated state (state C)
- Format: cell-based

compound | testedTarget | unitSpec | IC50
COC[C@@H](NC(C)=O)C(=O)NCc1ccccc1 [lacosamide, reference compound] | human sodium channel NaV1.2 (Homo sapiens) | µM | 65

====

- testedTarget: human sodium channel NaV1.2 (Homo sapiens, UniProt Q99250)
- Sequence (Q99250 whole entry): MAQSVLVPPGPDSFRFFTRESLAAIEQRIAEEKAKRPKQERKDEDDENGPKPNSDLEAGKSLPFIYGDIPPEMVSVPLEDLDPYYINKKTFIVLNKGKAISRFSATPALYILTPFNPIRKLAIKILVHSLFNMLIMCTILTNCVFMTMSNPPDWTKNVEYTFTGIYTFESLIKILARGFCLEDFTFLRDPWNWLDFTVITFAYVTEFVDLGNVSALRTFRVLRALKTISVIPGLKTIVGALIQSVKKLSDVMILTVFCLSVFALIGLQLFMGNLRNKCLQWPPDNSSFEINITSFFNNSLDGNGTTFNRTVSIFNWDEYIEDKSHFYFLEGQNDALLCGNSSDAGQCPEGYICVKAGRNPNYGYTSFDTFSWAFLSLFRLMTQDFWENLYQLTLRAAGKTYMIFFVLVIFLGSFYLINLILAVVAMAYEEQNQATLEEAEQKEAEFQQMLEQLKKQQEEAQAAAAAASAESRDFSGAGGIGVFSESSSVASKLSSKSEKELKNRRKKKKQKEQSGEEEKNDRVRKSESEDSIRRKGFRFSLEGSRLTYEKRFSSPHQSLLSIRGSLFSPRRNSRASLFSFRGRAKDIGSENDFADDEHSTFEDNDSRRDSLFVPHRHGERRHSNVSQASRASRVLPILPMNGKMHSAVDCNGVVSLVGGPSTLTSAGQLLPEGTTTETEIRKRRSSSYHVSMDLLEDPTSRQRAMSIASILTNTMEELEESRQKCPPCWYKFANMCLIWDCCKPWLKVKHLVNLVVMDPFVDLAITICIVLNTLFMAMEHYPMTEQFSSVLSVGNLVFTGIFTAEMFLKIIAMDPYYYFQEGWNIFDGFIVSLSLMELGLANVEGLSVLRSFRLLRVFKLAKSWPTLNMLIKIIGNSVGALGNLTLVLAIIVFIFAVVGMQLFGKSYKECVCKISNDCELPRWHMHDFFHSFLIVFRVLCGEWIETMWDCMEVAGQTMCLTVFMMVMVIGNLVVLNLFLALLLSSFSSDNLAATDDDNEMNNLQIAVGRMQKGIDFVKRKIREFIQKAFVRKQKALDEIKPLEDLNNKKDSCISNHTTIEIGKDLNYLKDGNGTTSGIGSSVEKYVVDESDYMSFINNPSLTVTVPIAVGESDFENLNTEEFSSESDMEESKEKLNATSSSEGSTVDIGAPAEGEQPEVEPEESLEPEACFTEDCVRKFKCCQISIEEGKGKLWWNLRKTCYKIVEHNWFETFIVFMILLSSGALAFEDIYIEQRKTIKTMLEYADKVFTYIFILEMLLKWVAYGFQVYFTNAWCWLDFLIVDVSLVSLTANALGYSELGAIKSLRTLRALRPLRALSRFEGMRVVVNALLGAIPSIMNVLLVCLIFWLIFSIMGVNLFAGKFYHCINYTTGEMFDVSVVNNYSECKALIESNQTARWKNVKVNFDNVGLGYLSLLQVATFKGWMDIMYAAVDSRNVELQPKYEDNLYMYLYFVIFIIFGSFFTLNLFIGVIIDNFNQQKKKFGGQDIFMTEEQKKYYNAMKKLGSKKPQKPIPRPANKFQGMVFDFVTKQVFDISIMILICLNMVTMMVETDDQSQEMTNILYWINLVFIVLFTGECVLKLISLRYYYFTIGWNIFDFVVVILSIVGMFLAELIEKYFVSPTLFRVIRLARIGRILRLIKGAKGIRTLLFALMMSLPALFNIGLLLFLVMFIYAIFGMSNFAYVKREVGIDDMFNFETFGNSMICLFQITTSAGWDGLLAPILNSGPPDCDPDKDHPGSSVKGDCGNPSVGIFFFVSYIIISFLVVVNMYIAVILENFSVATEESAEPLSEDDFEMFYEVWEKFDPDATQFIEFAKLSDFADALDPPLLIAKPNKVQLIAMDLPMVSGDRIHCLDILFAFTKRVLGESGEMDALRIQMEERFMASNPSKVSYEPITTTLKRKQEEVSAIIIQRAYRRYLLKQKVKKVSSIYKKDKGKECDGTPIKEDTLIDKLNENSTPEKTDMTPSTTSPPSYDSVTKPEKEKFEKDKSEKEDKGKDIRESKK
- methodNotes: NaV1.2 inhibition, automated patch-clamp (Q-Patch HTX), slow inactivated state (state C)
- Assay type: cell-based
- measurementSetup: hNaV1.2 CHO cells, slow inactivated state; read-out: NaV1.2 IC50
Counter-ions that a name gives are not always drawn.
measuredMetric: log10 IC50 (log10 of the value in nM)

compound | log10 IC50
O[C@@H](CO[C@@H]1CCc2ccccc21)CN1CC[C@@H](Oc2ccc(F)cc2)C1 [Example 47] | 2.56
Cc1cccc(N2CCN(CC(O)COC3(C)COc4ccccc43)CC2)c1C (centres unmarked) [Example 81] | 2.20
Cc1cccc(N2CCN(CC(O)COC3COc4cccnc43)CC2)c1C (centres unmarked) [Example 82] | 3.13
Fc1ccc(OC2CCN(CC3CCOc4ccccc43)CC2)cc1 (centres unmarked) [Example 165] | 2.96
c1ccc([C@H]2COC3(CCN(C[C@H]4CCc5ccccc54)CC3)C2)cc1 (single isomer, unassigned) [Compound 377] | 2.90
Cc1cccc(N2CCN(CC(O)COC3COc4ccccc43)CC2)c1C (centres unmarked) [Example 80] | 2.23
OC(CO[C@H]1CCc2ccccc21)CN1CCC(Oc2ccc(F)cc2)CC1 (some centres unmarked) [Example 235] | 2.53
Fc1ccc(N2CCC3(CCN(CC4Cc5cccnc5C4)C3)C2)cc1 (centres unmarked) [Example 339] | 3.36
Fc1ccc(OC2CCN(CC3Cc4cccnc4C3)CC2)cc1 (centres unmarked) [Example 155, dihydrochloride] | 3.00
OC(CO[C@@H]1CCCc2ccccc21)CN1CC[C@@H](Oc2ccc(F)cc2)C1 (some centres unmarked) [Example 50] | 3.11
O=C1c2ccccc2CCN1CCN1CCC2(CCc3ccccc3O2)CC1 [Example 422] | 2.60
O=C1c2ccccc2CCN1CCN1CCC(Oc2cccc(Cl)c2)CC1 [Example 194] | 2.36
c1ccc(O[C@@H]2COC3(CCN(C[C@H]4CCc5ccccc54)CC3)C2)cc1 (single isomer, unassigned) [Compound 384] | 2.46
c1ccc(OC2COC3(CCN(CC4CCc5ccccc54)CC3)C2)cc1 (single isomer, unassigned) [Example 380] | 2.08
COc1ccccc1O[C@H]1CCN(CC2Cc3ccccc3C2)[C@H](C)C1 [Example 141] | 3.00
COc1ccccc1OC1CCN(CC2Cc3ccccc3C2)[C@@H](C)C1 (single isomer, unassigned) [Example 147] | 3.18
Fc1ccc(OC2CCCN(CC3COc4ccccc43)CC2)cc1 (centres unmarked) [Example 272] | 2.92
N#Cc1ccc2c(c1)CCC2CN1CCC(Oc2ccc(F)cc2)CC1 (centres unmarked) [Example 121] | 3.32
COc1ccc2c(c1)C(CN1CCC(OCc3ccc(F)cc3)CC1)CC2 (centres unmarked) [Example 247] | 2.43
COc1ccccc1O[C@@H]1CCN(CC2Cc3ccccc3C2)[C@@H](C)C1 [Example 142] | 2.96
OC(COC1CCCCC1)CN1CC[C@H]2C[C@@H]1CN2c1ccccc1 (some centres unmarked) [Example 325] | 2.34
OC(COC1CCCCC1)CN1CCC2(CCN(c3ccccc3)CC2)C1 (centres unmarked) [Example 350] | 3.23
c1ccc(OC2COC3(C2)CN(CC2CCc4ccccc42)C3)cc1 (single isomer, unassigned) [Compound 362] | 3.80
COc1ccccc1OC1CCN(CC2c3ccccc3CC2(C)C)CC1 (centres unmarked) [Example 100] | 3.41
Fc1ccc(O[C@H]2CCN(CC3COCc4ccccc43)C2)cc1 (some centres unmarked) [Example 12] | 3.51
c1ccc(O[C@H]2COC3(C2)CN(C[C@H]2CCc4ccccc42)C3)cc1 (single isomer, unassigned) [Compound 365] | 3.34
O[C@H](COC1CCCCC1)CN1CCC2(CCN(c3ccccc3)C2)C1 (some centres unmarked) [Example 345] | 3.28
Fc1ccc(OC2CCN(CCC3CCOc4ccccc43)CC2)cc1 (centres unmarked) [Example 183] | 3.20
COc1ccccc1OC1CCN(CC2CCc3ccccc32)CC1(C)C (centres unmarked) [Example 103] | 3.50
OC(CO[C@H]1CCc2ccccc21)CN1CC[C@@H](Oc2ccc(F)cc2)C1 (some centres unmarked) [Example 42] | 2.88
COc1cccc(OCCN2CCN(c3nsc4ccccc34)CC2)c1 [Example 68] | 2.86
O=C1c2ccccc2CCN1CCCN1CCC(Oc2ccc(F)cc2)CC1 [Example 222] | 3.11
O[C@@H](COC1CCCCC1)CN1[C@@H]2CC[C@H]1CN(c1ccccc1)C2 [Example 288] | 2.64
OC(COc1ccccc1)CN1CCC2(CCc3ccccc3O2)CC1 (centres unmarked) [Example 439] | 2.70

====

- testedTarget: recombinant human serotonin receptor 5-HT2A (Homo sapiens)
- Construct: expressed in transfected cells; method B: loaded with Ca2+ dye
- methodNotes: 5-HT2A antagonist Ca2+ assay in CHO-K1 cells (method A aequorin luminescence / method B FLIPR fluorescence)
- Format: cell-based
- measurementSetup: 5HT2A IC50, μM, antagonist mode vs EC80 of reference agonist, method A or B
Catalogue of IC50 values

compound | testedTarget | IC50, µM
c1ccc2c(c1)COC21CCN(CC2COc3ccccc32)CC1 (stereo not drawn) [Example 391] | recombinant human serotonin receptor 5-HT2A (Homo sapiens) | 14.1
O=C1Cc2ccccc2N1CCN1CCC(Oc2ccc(F)cc2)CC1 [Example 185] | recombinant human serotonin receptor 5-HT2A (Homo sapiens) | 0.01
c1ccc2c(c1)CC(CN1CCC3(CC1)OCc1ccccc13)C2 [Example 392] | recombinant human serotonin receptor 5-HT2A (Homo sapiens) | 1.59
O[C@@H](COC1CCCCC1)CN1[C@@H]2CC[C@H]1CN(c1ccc(F)cc1)C2 [Example 290] | recombinant human serotonin receptor 5-HT2A (Homo sapiens) | 0.002
OC(COC1CCCCC1)CN1CCC2(CC1)COc1ccccc12 (stereo not drawn) [Example 389] | recombinant human serotonin receptor 5-HT2A (Homo sapiens) | 8.58
O[C@@H](COC1CCCCC1)CN1[C@@H]2CC[C@H]1CN(c1ccccc1)C2 [Example 288] | recombinant human serotonin receptor 5-HT2A (Homo sapiens) | 0.04

====

- testedTarget: recombinant human serotonin receptor 5-HT2A (Homo sapiens)
- Construct: expressed in transfected cells; method B: loaded with Ca2+ dye
- methodNotes: 5-HT2A antagonist Ca2+ assay in CHO-K1 cells (method A aequorin luminescence / method B FLIPR fluorescence)
- Assay type: cell-based
- measurementSetup: antagonist mode vs EC80 of reference agonist, method A or B, read-out: 5HT2A IC50

molecule | unitSpec | cmp | IC50
COc1cccc(O[C@H]2CCN(CCN3CCc4ccccc4C3=O)C2)c1 | nM | = | 2340
Fc1ccc(OC2CCCCN(CC3CCc4ccccc43)C2)cc1 (stereo not shown) | nM | = | 400
O=C1c2ccccc2CCN1CCN1CC[C@@H](Oc2ccncc2)C1 | nM | > | 16700
c1ccc([C@H]2COC3(CCN(C[C@@H]4CCc5ccccc54)CC3)C2)cc1 (single isomer, unassigned) | nM | = | 60

====

- testedTarget: UniProt:Q99250
- methodNotes: NaV1.2 inhibition, automated patch-clamp (Q-Patch HTX), slow inactivated state (state C)
- Type: cell-based
- measurementSetup: 1 μM compound; hNaV1.2 CHO cells, slow inactivated state; read-out: NaV1.2 (% inh), 1 μM
Catalogue of inhibition at 1 µM values

molecule | testedTarget | inhibition at 1 µM
COc1ccccc1OC1CCN(CC2CCOc3ccccc32)CC1 (stereo not drawn) [Example 162] | UniProt:Q99250 | 32%
c1ccc2c(c1)CCC2CN1CCC2(CCc3ccncc3O2)CC1 (stereo not drawn) [Example 405] | UniProt:Q99250 | 18%
O=C1Cc2ccccc2N1CCN1CCC(Oc2ccc(F)cc2)CC1 [Example 185] | UniProt:Q99250 | 19%
c1ccc2c(c1)CCC2CN1CCC2(CCc3cccnc3O2)CC1 (stereo not drawn) [Example 406] | UniProt:Q99250 | 7%
N#Cc1ccccc1OC1CCN(CC2Cc3cccnc3C2)CC1 (stereo not drawn) [Example 138] | UniProt:Q99250 | 10%
O[C@H](CO[C@H]1CCCc2ccccc21)CN1CCN(Cc2ccccc2)CC1 [Example 87] | UniProt:Q99250 | 15%
Fc1ccc(OC2CCN(CC3Cc4ccccc4C3)CC2)cc1 [Example 154] | UniProt:Q99250 | 35%
Fc1ccc(O[C@H]2CCCN(CC3COCc4ccccc43)C2)cc1 (stereo partly drawn) [Example 261] | UniProt:Q99250 | 22%
c1ccc2c(c1)CCC1(CCN(CC3CCc4ccccc43)C1)O2 (stereo not drawn) [Example 387] | UniProt:Q99250 | 29%
